Assay: log P by HPLC on reversed-phase column (EEC directive 79/831 Annex V.A8)
Assay type: physicochemical
Settings: HPLC on reversed-phase column
From the text: a) The determination of the [M+H]^+ by LC-MS in the acidic range was effected at pH 2.7, with acetonitrile (containing 0.1% formic acid) and water as eluents; linear gradient from 10% acetonitrile to 95% acetonitrile, instrument: Agilent 1100 LC system, Agilent MSD system, HTS PAL. […]
If the reported log p a) equals or exceeds 2, assign criterion met. If not, assign criterion not met.

Sample answers from the record:
- Cc1cccc(C)c1NC(=O)c1c([O-])n(Cc2cnc(Cl)s2)c2cccc[n+]12: criterion met
- COc1cccc(F)c1NC(=O)c1c([O-])n(Cc2cnc(Cl)s2)c2cccc[n+]12: criterion met
- Cc1ccc[n+]2c(C(=O)Nc3ccccn3)c([O-])n(Cc3ccc(Cl)nc3)c12: criterion not met
- Cc1cccc(NC(=O)c2c([O-])n(Cc3ccc(Cl)nc3)c3cccc[n+]23)c1: criterion not met
- Cc1cccc(NC(=O)c2c([O-])n(Cc3cnc(Cl)s3)c3cccc[n+]23)c1: criterion met
- CCCNC(=O)c1c([O-])n(Cc2cnc(Cl)s2)c2c(C)ccc[n+]12: criterion met

Entry N#CC1(NC(=O)c2c([O-])n(Cc3cnc(Cl)s3)c3cccc[n+]23)CC1 : is its log p a) no less than 2?
criterion not met

Further, for CC(c1ccc(Cl)nc1)n1c([O-])c(C(=O)Nc2cccc(C(F)(F)F)c2)[n+]2ccccc12 (stereo not shown) ?
criterion met

# iterate: Cc1ccc[n+]2c(C(=O)Nc3c(Cl)cccc3Cl)c([O-])n(Cc3cnc(Cl)s3)c12
criterion met

Next record, please: CC(c1ccc(Cl)nc1)n1c([O-])c(C(=O)NC2(C#N)CC2)[n+]2ccccc12 (stereo not shown)
criterion not met

Queued: Cc1ccc[n+]2c(C(=O)Nc3c(F)cccc3F)c([O-])n(Cc3cnc(Cl)s3)c12 [Example I-1-291]
criterion met

Similarly, CC(c1ccc(Cl)nc1)n1c([O-])c(C(=O)NCC2CC2)[n+]2ccccc12 (stereo not shown) ?
criterion met

// repeat for O=C(Nc1c(F)cccc1Cl)c1c([O-])n(Cc2cnc(Cl)s2)c2cccc[n+]12 and report
criterion met

----------
Entries and their log p values follow.
Assay: log P by HPLC on reversed-phase column (EEC directive 79/831 Annex V.A8)
Type: physicochemical
Conditions: HPLC on reversed-phase column (footnote a)
Could you respond with only the numeric value?

Some solved cases for reference:
• O=C(Cn1nccn1)c1c([O-])n(Cc2cnc(Cl)s2)c2cccc[n+]12 [Example I-1-068] = 1.41
• O=C(NC1CC1)c1c([O-])n(Cc2cnc(Cl)s2)c2cc(Cl)cc[n+]12 [Example I-1-184] = 2.14
• O=C(CCl)c1c([O-])n(Cc2ccc(Cl)nc2)c2cc(C(F)(F)F)cc[n+]12 [Example I-1-063] = 2.52
• O=C(NC1CCCC1)c1c([O-])n(Cc2cnc(Cl)s2)c2cccc[n+]12 [Example I-1-138] = 2.35
• O=C(Nc1ccc(Cl)nc1)c1c([O-])n(Cc2cnc(Cl)s2)c2cccc[n+]12 [Example I-1-153] = 3.06

Please report the recorded log p for Cc1ccc[n+]2c(C(=O)Cn3cncn3)c([O-])n(Cc3cnc(Cl)s3)c12 [Example I-1-096] .
1.31

Next compound: CC(=O)Nc1ccn(CC(=O)c2c([O-])n(Cc3cnc(Cl)s3)c3cccc[n+]23)n1 [Example I-1-056]
1.21

// query: CCNCC(=O)c1c([O-])n(Cc2ccc(Cl)nc2)c2cccc[n+]12 [Example I-1-024]
0.42

----------
Tested on: Myzus persicae
Experiment: Myzus persicae spray test (bell pepper plants)
Type: in vivo
Details: application rate 100 ppm, after 6 days
observed property: efficacy (kill in %)
Unit % implied. Number only.

Would you please look over these solved cases?
* Cc1ccc[n+]2c(C(=O)NC3(C#N)CC3)c([O-])n(Cc3ccc(Cl)nc3)c12 | 95
* COCC(=O)c1c([O-])n(Cc2ccc(Cl)nc2)c2c(C)ccc[n+]12 | 100
* O=C(Nc1ccc(F)cc1)c1c([O-])n(Cc2cnc(Cl)s2)c2cccc[n+]12 | 99

Here is the next item to consider.
// lookup efficacy (kill in %) for O=C(Cn1ccnc1Cl)c1c([O-])n(Cc2cnc(Cl)s2)c2cccc[n+]12
95

----------
Listed here: items and their measured log p a).
Test: log P by HPLC on reversed-phase column (EEC directive 79/831 Annex V.A8)
Type: physicochemical
Details: HPLC on reversed-phase column
Description: a) The determination of the [M+H]^+ by LC-MS in the acidic range was effected at pH 2.7, with acetonitrile (containing 0.1% formic acid) and water as eluents; linear gradient from 10% acetonitrile to 95% acetonitrile, instrument: Agilent 1100 LC system, Agilent MSD system, HTS PAL. […]
Would you mind answering with just the numeric figure?

Worked examples follow.
- O=C(Nc1c(Cl)ccnc1Cl)c1c([O-])n(Cc2cnc(Cl)s2)c2cccc[n+]12: 2.14
- Cc1ccnc(Cl)c1NC(=O)c1c([O-])n(Cc2cnc(Cl)s2)c2cccc[n+]12: 2.03
- Cc1ccc[n+]2c(C(=O)Nc3c(F)cccc3Cl)c([O-])n(Cc3cnc(Cl)s3)c12: 2.93

Requested field: log p a). Item: O=C(Nc1cccc(OC(F)(F)F)c1)c1c([O-])n(Cc2ccc(Cl)nc2)c2cccc[n+]12
3.55

----------
// reported log p for each item listed
Test: log P by HPLC on reversed-phase column (EEC directive 79/831 Annex V.A8)
Type: physicochemical
Conditions: HPLC on reversed-phase column (footnote a)

The examples below pair each entry with its known result.
* COC(=O)c1c([O-])n(Cc2cncnc2)c2cccc[n+]12 [Example I-1-107] | 0.42
* O=C(CCl)c1c([O-])n(Cc2cnc(Cl)s2)c2cc(Cl)cc[n+]12 [Example I-1-120] | 2.17
* Cc1cccc2n(Cc3ccc(Cl)nc3)c([O-])c(C(=O)CCl)[n+]12 [Example I-1-098] | 1.74

Recorded log p of N#Cc1ccn(CC(=O)c2c([O-])n(Cc3cnc(Cl)s3)c3cccc[n+]23)n1 [Example I-1-047] , please.
1.83

----------
Experiment: log P by HPLC on reversed-phase column (EEC directive 79/831 Annex V.A8)
Assay type: physicochemical
Conditions: HPLC on reversed-phase column (footnote a)
observed property: log p

Report log p for CCCOCC(=O)c1c([O-])n(Cc2cnc(Cl)s2)c2ccc(Cl)c[n+]12 please.
2.41

What would you report for COC(=O)c1c([O-])n(Cc2ccc(Cl)nc2)c2c(F)cc(F)c[n+]12 ?
1.56

Next entry: CCOCC(=O)c1c([O-])n(Cc2cnc(Cl)s2)c2ccc(C)c[n+]12
1.78

Another compound to check: CCCOCC(=O)c1c([O-])n(Cc2cnc(Cl)s2)c2c(C)ccc[n+]12
2.11

How about this compound: Cc1ccc2n(Cc3ccc(Cl)nc3)c([O-])c(C(=O)Cn3cccn3)[n+]2c1
1.63

Thanks! And COC(=O)c1c([O-])n(Cc2ccc(Cl)nc2)c2c(Cl)ccc[n+]12 ?
1.56

Further, for O=C(COc1cccnc1)c1c([O-])n(Cc2cnc(Cl)s2)c2cccc[n+]12 ?
1

And then O=C(COc1ccccc1)c1c([O-])n(Cc2cnc(Cl)s2)c2cccc[n+]12 , what is it?
2.34

----------
Experiment: log P by HPLC on reversed-phase column (EEC directive 79/831 Annex V.A8)
Assay type: physicochemical
Conditions: HPLC on reversed-phase column (footnote a)
observed property: log p
Number, no unit, nothing else.

* O=C(NCc1ccccc1)c1c([O-])n(Cc2cnc(Cl)s2)c2cccc[n+]12 | 2.41
* CNC(=O)c1c([O-])n(Cc2cnc(Cl)s2)c2cccc[n+]12 | 1.31
* CC(C)NC(=O)c1c([O-])n(Cc2cnc(Cl)s2)c2cccc[n+]12 | 1.95
* CCN(CC(=O)c1c([O-])n(Cc2ccc(Cl)nc2)c2cccc[n+]12)C(C)=O | 1.4
* Cc1cc[n+]2c(C(=O)CCl)c([O-])n(Cc3cnc(Cl)s3)c2c1 | 1.96

We now examine a further compound.
Query: log p; subject: COCC(=O)c1c([O-])n(Cc2ccc(Cl)nc2)c2ccc(F)c[n+]12
1.39

----------
Recorded chromatographic logP for the following molecules
Assay: log P by HPLC on reversed-phase column (EEC directive 79/831 Annex V.A8)
Assay type: physicochemical
Source text: a) The determination of the [M+H]^+ by LC-MS in the acidic range was effected at pH 2.7, with acetonitrile (containing 0.1% formic acid) and water as eluents; linear gradient from 10% acetonitrile to 95% acetonitrile, instrument: Agilent 1100 LC system, Agilent MSD system, HTS PAL. […]
Give a plain numeric answer without units written out.

* O=C(CCl)c1c([O-])n(Cc2ccc(Cl)nc2)c2scc[n+]12 | 1.33

# get_value(readout='chromatographic logP', item= Clc1ccc(CNc2ncccn2)cn1 )
1.36

What would you report for CC(=O)c1c([O-])n(Cc2cnc(Cl)s2)c2cccc[n+]12 ?
1.29

Follow-up item: O=C(NC1CC1)c1c([O-])n(Cc2cnc(Cl)s2)c2cccc[n+]12
1.63

What do we get for O=C(CCl)c1c([O-])n(Cc2cnc(Cl)s2)c2cccc[n+]12 ?
1.69

And then CCNCC(=O)c1c([O-])n(Cc2cnc(Cl)s2)c2cccc[n+]12 , what is it?
0.57

Same question for COC(=O)c1c([O-])n(Cc2ccc(Cl)nc2)c2nccc[n+]12 please.
1.15

Same thing, different molecule: COCC(=O)c1c([O-])n(Cc2cnc(Cl)s2)c2cccc[n+]12
1.23

Next up: COC(=O)c1c([O-])n(Cc2cnc(Cl)s2)c2cccc[n+]12
1.23

Same question for CC(C)OCC(=O)c1c([O-])n(Cc2cnc(Cl)s2)c2cccc[n+]12 please.
1.73

Then this molecule: CCSCC(=O)c1c([O-])n(Cc2cnc(Cl)s2)c2cccc[n+]12
1.99
